B1: ZNF207 (parent)
chain: FPSAGQAQAAVQGPVGTDFKPLNS

variants of: B1; assay: protein stability index of a GFP-peptide fusion (GPS, HEK-293T) (PSI 1-6); higher = more stable; conditions: c terminus: a fixed tail appended;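 further: lentivirally expressed fusions sorted by FACS into six bins by GFP to DsRed ratio, PSI derived from sequencing read proportions per bin multiplied by bin number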
measurement name: protein stability index
Field format: numeric only.

# input # protein stability index lookup, item "Q12G"
# output 3.37

# input And then "A10C" , what is it?
# output 2.75

# input Please answer likewise for "S24C"
# output 3.31

# input What about "G16Q" ?
# output 3.93

# input Same question for "V11R" please.
# output 4.12

Data origin, for the record: the supplement of paper PMC10567573
